B1: SPACA3 (parent)
chain: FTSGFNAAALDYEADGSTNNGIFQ

Variants of: B1
Assay: protein stability index of a GFP-peptide fusion (GPS, HEK-293T) (PSI 1-6); higher = more stable;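 also: lentivirally expressed fusions sorted by FACS into six bins by GFP to DsRed ratio, PSI derived from sequencing read proportions per bin multiplied by bin number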
Settings: c terminus: a fixed tail appended
Provide the reported protein stability index of each item.
Write the value as a bare number.

protein stability index in this record for FTSKFNAAALDYEADGSTNNGIFQ [G4K] : 1.98

protein stability index in this record for FHSGFNAAALDYEADGSTNNGIFQ [T2H] : 2.02

protein stability index in this record for FTSGFNAAATDYEADGSTNNGIFQ [L10T] : 2.01

protein stability index in this record for FTSGFNAAAKDYEADGSTNNGIFQ [L10K] : 1.99
